Data origin, for the record: patent US20080311122A1

test.protocol: Isoelectric focusing gel electrophoresis
Format: physicochemical
// reported PI for each item listed

G9: human anti-HMG1 antibody; VL/VH aa SEQ ID NO: 34/36 (antibody, listed as Homo sapiens, V domains shown) VH: EVQLLESGGGLVQPGGSLRLSCAASGFTFSSYDMFWVRQAPGKGLEWVSRISPSGGYTYYADSVKGRFTISRDNSKNTLYLQMNSLRAEDTAVYYCARLRYFDSRGYAFDIWGQGTMVTVSS VL: AQDIQMTQSPGTLSLSPGERATLSCRASQSVRSSYLAWYQQKPGQAPRLLIYGASTRATGIPDRFSGSGSGTDFTLTISRLEPEDFAVYYCQQYGTSRWTFGQGTKVEIK: 9.01
S10: human anti-HMG1 antibody; VL/VH aa SEQ ID NO: 58/60 (antibody, listed as Homo sapiens, V domains shown) VH: EVQLLESGGGLVQPGGSLRLSCAASGFTFSWYDMWWVRQAPGKGLEWVSWIVPSGGITAYADSVKGRFTISRDNSKNTLYLQMNSLRAEDTATYYCARGNYGPSPFDYWGQGTLVTVSS VL: AQDIQMTQSPGTLSLSPGERATLSCRATQSVRKNFLAWYQQKPGQAPRLLIYDASSRATGIPDRFSGSGSGTDFTLTISRLEPEDFAVYYCQQYGNSPIIFGQGTRLEIK: 8.76

Input: Quick one: PI for G20: human anti-HMG1 antibody; VL/VH aa SEQ ID NO: 46/48 (antibody, listed as Homo sapiens, V domains shown) VH: EVQLLESGGGLVQPGGSLRLSCAASGFTFSWYDMFWVRQAPGKGLEWVSWISPSGGYTKYADSVKGRFTISRDNSKNTLYLQMNSLRAEDTAMYYCARSGLDYYDSSGYLDAFDIWGQGTMVTVSS VL: AQDIQMTQSPSSVSASVGDRVTITCRASQDVSIWLAWYQQKPGKAPKLLIFGASRLQSGVPSRFSGSRSGADFTLTIDSVQPEDFASYYCQQADSFPLTFGGGTKVEIK ?
Output: 7.8

Input: Quick one: PI for S17: human anti-HMG1 antibody; VL/VH aa SEQ ID NO: 70/72 (antibody, listed as Homo sapiens, V domains shown) VH: EVQLLESGGGLVQPGGSLRLSCAASGFTFSYYDMHWVRQAPGKGLEWVSRISPSGGYTWYADSVKGRFTISRDNSKNTLYLQMNSLRAEDTAVYYCTRGRYTSGWHEYFDPWGQGTLVTVSS VL: AQDIQMTQSPSSLSASVGDRVTITCRASQSIGTYLNWYQQKPGTAPKVLIYAASSLQSGVPSRFSGSGSGTDFTLTISSLQPEDFSTYYCQQSYNTPRTFGQGTKLEIK ?
Output: 8.7

Input: Quick one: PI for S16: human anti-HMG1 antibody, ATCC PTA-6259; VL/VH aa SEQ ID NO: 13/15 (antibody, listed as Homo sapiens, V domains shown) VH: EVQLLESGGGLVQPGGSLRLSCAASGFTFSWYSMLWVRQAPGKGLEWVSYISPSGGFTNYADSVKGRFTISRDNSKNTLYLQMNSLRAEDTAVYYCARWDYNSGWYYDHWGQGTLVTVSS VL: AQDIQMTQSPDTLSLSPGERATLSCRASQSVNSRNLAWYQQKPGQAPRLLIYGASTRATGIPDRFSGSVSGTEFTLTISSLQPDDFATYYCQQYNSYFTFGQGTKLEIK ?
Output: 8.11

Input: Quick one: PI for G2: human anti-HMG1 IgG1 from Fab phage display library; VL/VH aa SEQ ID NO: 30/32 (antibody, listed as Homo sapiens, V domains shown) VH: EVQLLESGGGLVQPGGSLRLSCAASGFTFSWYKMQWVRQAPGKGLEWVSGISPSGGSTAYADSVKGRFTISRDNSKNTLYLQMNSLRAEDTAVYYCAKMGLFNTGNSYVDYWGQGTLVTVSS VL: AQSELTQPPSVSEAPGQRVTISCSGSTSNIGNNAVIWYQQLPGKAPKLLIYYDDLLPSGVSDRFSGSKSGTSGSLAISGLQSEDEADYYCASWDDNLNGPLFGGGTKLTVL ?
Output: 7.78
